assay.details: Processed sample stability in final extract
Format: physicochemical
test.context: 4°C, autosampler, 25.1 h, nominal 1500 ng/mL
Overview of reported Mean measured concentration across a group of compounds:
property.measured: Mean measured concentration (ng/mL)

1. Cc1nc2c(F)cc(-c3nc(Nc4ccc(CN5CCNCC5)cn4)ncc3F)cc2n1C(C)C = 1537
2. CN(C)C(=O)c1cc2cnc(Nc3ccc(N4CCNCC4)cn3)nc2n1C1CCCC1 = 1480
3. CC(=O)c1c(C)c2cnc(Nc3ccc(N4CCNCC4)cn3)nc2n(C2CCCC2)c1=O = 1480
4. CCN1CCN(Cc2ccc(Nc3ncc(F)c(-c4cc(F)c5nc(C)n(C(C)C)c5c4)n3)nc2)CC1 = 1510

Hey, just so you know, these numbers are from paper PMC10175095.
